// data source = patent US10730885B1

Tested on: Staphylococcus aureus ATCC 29213
experiment-notes: Agar well diffusion, primary antimicrobial screening
Assay type: cell-based
test-context: S. aureus
parameter-measured: antibacterial activity compared with ciprofloxacin

compound="Cc1ccc2oc(=O)c(S(=O)(=O)Nc3ccc(C(=O)/C=C/c4ccc(Cl)cc4)cc3)c(O)c2c1 [Compound 12d]" endpoint_value="equal to ciprofloxacin"
compound="NS(=O)(=O)c1ccc(NS(=O)(=O)c2c(O)c3cc(Cl)ccc3oc2=O)cc1 [Compound 10a]" endpoint_value="equal to ciprofloxacin"
compound="O=C(/C=C/c1ccc(Cl)cc1)c1ccc(NS(=O)(=O)c2c(O)c3cc(Cl)ccc3oc2=O)cc1 [Compound 12c]" endpoint_value="equal to ciprofloxacin"

* * *

// reported % Inhibition of proteinase activity per item
Tested on: trypsin
experiment-notes: Proteinase inhibitory activity (trypsin/casein)
Format: biochemical
test-context: 250 μg/ml, mean ± SD (n = 3)
parameter-measured: % Inhibition of proteinase activity (%)

molecule="COc1ccc(/C=C/C(=O)c2ccc(NS(=O)(=O)c3c(O)c4cc(C)ccc4oc3=O)cc2)cc1 [Compound 12f]" parameter_measured="% Inhibition of proteinase activity" endpoint_value=21.7
molecule="O=C(/C=C/c1ccc([N+](=O)[O-])cc1)c1ccc(NS(=O)(=O)c2c(O)c3cc(Cl)ccc3oc2=O)cc1 [Compound 12a]" parameter_measured="% Inhibition of proteinase activity" endpoint_value=62.14
molecule="Cc1ccc2oc(=O)c(S(=O)(=O)Nc3ccc(O)cc3)c(O)c2c1 [Compound 11d]" parameter_measured="% Inhibition of proteinase activity" endpoint_value=20.15
molecule="Cc1ccc2oc(=O)c3c(c2c1)OC(N=Cc1ccc(Cl)cc1Cl)=C(C#N)C3c1ccco1 (racemic) [Compound 8f]" parameter_measured="% Inhibition of proteinase activity" endpoint_value=26.83
molecule="COc1ccc(/C=C/C(=O)c2ccc(NS(=O)(=O)c3c(O)c4cc(Cl)ccc4oc3=O)cc2)cc1 [Compound 12e]" parameter_measured="% Inhibition of proteinase activity" endpoint_value=22.83
molecule="Cc1ccc2oc(=O)c3c(c2c1)OC(N)=C(C(N)=O)C3c1ccc([N+](=O)[O-])cc1 (racemic) [Compound 6a]" parameter_measured="% Inhibition of proteinase activity" endpoint_value=79.72
molecule="Cc1ccc2oc(=O)c(S(=O)(=O)Nc3ccc(S(=O)(=O)Nc4ncccn4)cc3)c(O)c2c1 [Compound 10d]" parameter_measured="% Inhibition of proteinase activity" endpoint_value=36.84
molecule="Cc1ccc2oc(=O)c(S(=O)(=O)Nc3ccc(S(N)(=O)=O)cc3)c(O)c2c1 [Compound 10b]" parameter_measured="% Inhibition of proteinase activity" endpoint_value=5.93
molecule="Cc1ccc2oc(=O)c3c(c2c1)OC(N)=C(C#N)C3c1ccc([N+](=O)[O-])cc1 (racemic) [Compound 5a]" parameter_measured="% Inhibition of proteinase activity" endpoint_value=17.38
molecule="COc1cc(C=NC2=C(C#N)C(c3ccc([N+](=O)[O-])cc3)c3c(c4cc(C)ccc4oc3=O)O2)cc(OC)c1OC (racemic) [Compound 8c]" parameter_measured="% Inhibition of proteinase activity" endpoint_value=68.5
molecule="Cc1ccc2oc(=O)c3c(c2c1)OC(N)=C(C#N)C3c1ccco1 (racemic) [Compound 5b]" parameter_measured="% Inhibition of proteinase activity" endpoint_value=74.68
molecule="Cc1ccc2oc(=O)c(S(=O)(=O)Nc3ccc(C(=O)/C=C/c4ccc(Cl)cc4)cc3)c(O)c2c1 [Compound 12d]" parameter_measured="% Inhibition of proteinase activity" endpoint_value=31.88
molecule="NS(=O)(=O)c1ccc(NS(=O)(=O)c2c(O)c3cc(Cl)ccc3oc2=O)cc1 [Compound 10a]" parameter_measured="% Inhibition of proteinase activity" endpoint_value=18.78
molecule="COc1cc(C=NC2=C(C#N)C(c3ccco3)c3c(c4cc(C)ccc4oc3=O)O2)cc(OC)c1OC (racemic) [Compound 8d]" parameter_measured="% Inhibition of proteinase activity" endpoint_value=43.4
molecule="Cc1ccc2oc(=O)c3c(c2c1)OC(N=Cc1ccc(Cl)cc1Cl)=C(C#N)C3c1ccc([N+](=O)[O-])cc1 (racemic) [Compound 8e]" parameter_measured="% Inhibition of proteinase activity" endpoint_value=45.78

* * *

// reported melting point per item
parameter-measured: melting point

compound="Cc1ccc2oc(=O)c3c(c2c1)OC(N)=C(C(N)=O)C3c1ccc([N+](=O)[O-])cc1 (racemic)" endpoint_value="142 to 144 °C"
compound="Cc1ccc2oc(=O)c(S(=O)(=O)Nc3ccc(S(=O)(=O)Nc4nccs4)cc3)c(O)c2c1 [Compound 10f]" endpoint_value="167 to 169 °C"
compound="Cc1ccc2oc(=O)c(S(=O)(=O)Nc3ccc(S(N)(=O)=O)cc3)c(O)c2c1 [Compound 10b]" endpoint_value="241 to 243 °C"
compound="COc1cc(C=NC2=C(C#N)C(c3ccc([N+](=O)[O-])cc3)c3c(c4cc(C)ccc4oc3=O)O2)cc(OC)c1OC (racemic)" endpoint_value="221 to 223 °C"

* * *

Tested on: trypsin
experiment-notes: Proteinase inhibitory activity (trypsin/casein)
Format: biochemical
parameter-measured: in vitro anti-proteinase activity compared with aspirin

compound="COc1cc(C=NC2=C(C#N)C(c3ccc([N+](=O)[O-])cc3)c3c(c4cc(C)ccc4oc3=O)O2)cc(OC)c1OC (racemic)" endpoint_value="more potent"
compound="Cc1ccc2oc(=O)c3c(c2c1)OC(N)=C(C(N)=O)C3c1ccco1 (racemic)" endpoint_value="more potent"
